This collection of values is drawn from ChEMBL document CHEMBL5058577.

Test system: U2OS
Test: Multiplex assay against U2OS
Type: toxicity, cell-based
Conditions: human, 24 h, 10 µM, compound concentration 10 uM, replicate 1
# Lookup of reported Population Fragmented Nuclei (%) keyed by entry
PROPERTY_MEASURED: Population Fragmented Nuclei (%)

>>> recorded_number("O=c1nc2[nH]c3ccccc3nc-2c(=O)[nH]1 [ALLOXAZINE]")
30
>>> recorded_number("Cc1cc(O)c(-c2ccc([C@@H](C)CN(C)C)cc2)c2c1[nH]c(=O)c1sccc12")
36
>>> recorded_number("Cc1c(Cc2ccc3ccccc3n2)c2cc(F)ccc2n1CC(=O)O [TIMAPIPRANT]")
26
>>> recorded_number("COc1cc(Nc2ncc3c(n2)-c2ccc(Cl)cc2C(c2c(F)cccc2OC)=NC3)ccc1C(=O)O [ALISERTIB]")
30
>>> recorded_number("CCn1c(-c2nc3cc(C(=O)N4CCCC(N)C4)ccc3n2C)cc2ccccc21.Cl (stereo not given)")
27

====

Here the recorded Population Mitotic Cells (%) is given for each entry.
Tested on: U2OS
Test: Multiplex assay against U2OS
Format: toxicity, cell-based
Settings: human, 48 h, 1 µM, compound concentration 1 uM, replicate 2
PROPERTY_MEASURED: Population Mitotic Cells (%)

>>> result("Cc1cc(O)c(-c2ccc([C@@H](C)CN(C)C)cc2)c2c1[nH]c(=O)c1sccc12")
"0%"
>>> result("Cc1cc(NC(=O)NCCN2CCC(O)(Cc3ccccc3)CC2)c2ccccc2n1")
"16%"
>>> result("Cc1ccc(OCC(O)C(C)NC(C)C)c2c1CCC2.Cl (centres undefined)")
"20%"
>>> result("N[C@](CC1c2ccccc2Oc2ccccc21)(C(=O)O)[C@H]1C[C@@H]1C(=O)O")
"15%"
>>> result("Cc1c(Cc2ccc3ccccc3n2)c2cc(F)ccc2n1CC(=O)O")
"10%"
>>> result("COc1cc2nc(N3CCN(C(=O)c4ccco4)CC3)nc(N)c2cc1OC.Cl [PRAZOSIN HYDROCHLORIDE]")
"0%"
>>> result("Cc1nn(C)c2nc(NNC(=O)Nc3cc(Cl)nc(Cl)c3)cc(C(C)C)c12")
"13%"
>>> result("COc1cc2nc(N3CCN(C(=O)COc4c(OC)cccc4C(C)C)CC3)nc(N)c2cc1OC.Cl.Cl")
"25%"
>>> result("COc1c(Nc2ccc(S(C)(=O)=O)nc2C)ncnc1OC1CCN(C(=O)OC(C)C)CC1")
"18%"

====

Tested on: U2OS
Experiment: Multiplex assay against U2OS
Type: toxicity, cell-based
Conditions: human, 24 h, 1 µM, compound concentration 1 uM, replicate 1
PROPERTY_MEASURED: Population Healthy Nuclei (%)

>>> recorded_number("CN1C[C@H](C(=O)N[C@]2(C)O[C@@]3(O)[C@@H]4CCCN4C(=O)[C@H](Cc4ccccc4)N3C2=O)C[C@@H]2c3cccc4[nH]cc(c34)C[C@H]21.CS(=O)(=O)O [DIHYDROERGOTAMINE MESYLATE]")
67
>>> recorded_number("CC(C)(C)c1ccc(CSc2cnn(C(C)(C)C)c(=O)c2Cl)cc1")
58
>>> recorded_number("O=C(O)CCC/C=C\\CC1C(O)CC(O)C1/C=C/C(O)COc1cccc(Cl)c1 (stereo not drawn)")
63

====

Tested on: Fibroblast
Assay: Multiplex assay against human fibroblast
Format: toxicity, cell-based
Conditions: 24 h, 1 µM, compound concentration 1 uM, replicate 2
Mark Condition met for reported Population Membrane Permeable-Phenotype (%) of 6% or greater; mark Condition not met for anything smaller.

>>> answer_label("Cn1cc(C(=O)OCC2CCN(CCNS(C)(=O)=O)CC2)c2ccccc21")
"Condition met"
>>> answer_label("C=CCN1C[C@H](C(=O)N(CCCN(C)C)C(=O)NCC)C[C@@H]2c3cccc4[nH]cc(c34)C[C@H]21")
"Condition not met"
>>> answer_label("Cc1ccc(OCC(O)C(C)NC(C)C)c2c1CCC2.Cl (stereo not given)")
"Condition not met"
>>> answer_label("O=c1ccc2ccc(OCCCCN3CCN(c4cccc5sccc45)CC3)cc2[nH]1")
"Condition not met"
>>> answer_label("COc1cc2nc(N3CCN(C(=O)COc4c(OC)cccc4C(C)C)CC3)nc(N)c2cc1OC.Cl.Cl")
"Condition not met"
>>> answer_label("Cc1cc(NC(=O)NCCN2CCC(O)(Cc3ccccc3)CC2)c2ccccc2n1")
"Condition met"
>>> answer_label("COc1ccc2c(c1OCc1ccccc1)C[C@@H](C(=O)O)N(C(=O)C(c1ccccc1)c1ccccc1)C2")
"Condition met"
>>> answer_label("O=c1nc2[nH]c3ccccc3nc-2c(=O)[nH]1")
"Condition not met"
>>> answer_label("Cc1c(Cc2ccc3ccccc3n2)c2cc(F)ccc2n1CC(=O)O")
"Condition met"
>>> answer_label("COCCn1c(C)c(C)s/c1=N\\C(=O)C1C(C)(C)C1(C)C")
"Condition not met"
>>> answer_label("Cc1sc2c(c1C)C(c1ccc(Cl)cc1)=N[C@H](CC(=O)OC(C)(C)C)c1nnc(C)n1-2")
"Condition met"
>>> answer_label("O=C(NCCNCC(O)COc1ccc(O)cc1)N1CCOCC1.O=C(NCCNCC(O)COc1ccc(O)cc1)N1CCOCC1.O=C(O)/C=C/C(=O)O (stereo not given) [XAMOTEROL FUMARATE]")
"Condition met"
>>> answer_label("Cl.Cl.OCCOCCN1CCN(C(c2ccccc2)c2ccc(Cl)cc2)CC1 (stereo not given) [HYDROXYZINE HYDROCHLORIDE]")
"Condition not met"
>>> answer_label("CCC(=O)OCC(=O)[C@@]1(OC(=O)CC)[C@@H](C)C[C@H]2[C@@H]3CCC4=CC(=O)C=C[C@]4(C)[C@@]3(Cl)[C@@H](O)C[C@@]21C [BECLOMETHASONE DIPROPIONATE]")
"Condition met"
>>> answer_label("Cc1cc(=O)n(C)c2cc(N3C(=O)CC[C@H](NS(=O)(=O)CC(C)C)[C@H]3c3ccc(Cl)cc3)ccc12")
"Condition met"
>>> answer_label("CN(C)C(=O)Cn1cc(-c2ccc(-c3nnc4ccccn34)cc2)cn1")
"Condition not met"
>>> answer_label("Nc1nc(-c2ccco2)c2cnn(Cc3ccccc3F)c2n1")
"Condition not met"
>>> answer_label("CN1CCN(c2ccc(Nc3c4ccccc4nc4ccccc34)cc2)CC1.Cl.Cl.O")
"Condition not met"
>>> answer_label("CCCCC[C@H](O)/C=C/[C@H]1[C@H](O)CC(=O)[C@@H]1CCCCCCC(=O)O")
"Condition met"
>>> answer_label("COc1cc(OC2CCN(C(C)=O)CC2)ccc1C(=O)N1CCC(N2C(=O)OCc3ccccc32)CC1")
"Condition not met"
>>> answer_label("C[C@H](NC(=O)CNC(=O)c1cccc(Cl)c1)c1ccccc1")
"Condition met"
>>> answer_label("COc1c(Nc2ccc(S(C)(=O)=O)nc2C)ncnc1OC1CCN(C(=O)OC(C)C)CC1")
"Condition met"
>>> answer_label("CC(C)(O)C(=O)N1CCN(c2ccc(C(F)(F)F)c(C3=C(c4c[nH]c5ccccc45)C(=O)NC3=O)c2)CC1")
"Condition not met"
>>> answer_label("COCCCN1CCC(NC(=O)c2cc(Cl)c(N)c3c2OCC3)CC1 [PRUCALOPRIDE]")
"Condition met"
>>> answer_label("CC(C)C[C@H](CO)Nc1nc(S[C@@H](C)c2ccccc2)nc2nc(N)sc12")
"Condition met"
>>> answer_label("Cc1nn(C)c2nc(NNC(=O)Nc3cc(Cl)nc(Cl)c3)cc(C(C)C)c12")
"Condition not met"
>>> answer_label("COc1cc(C(=O)N2CC[C@@H](O)[C@@H](N)C2)cc2nc(-c3cc4ccccc4n3CC3CC3)n(C)c12.Cl")
"Condition not met"
>>> answer_label("CC(C)(C)c1ccc(CSc2cnn(C(C)(C)C)c(=O)c2Cl)cc1")
"Condition met"
>>> answer_label("CN(C)C/C=C/C(=O)Nc1ccc(C(=O)N2CCCC(Nc3ncc(Cl)c(-c4c[nH]c5ccccc45)n3)C2)cc1 (stereo not given)")
"Condition met"
>>> answer_label("CSc1nc(NC2CCCC2)c([N+](=O)[O-])c(NC2CCCC2)n1")
"Condition met"
>>> answer_label("Nc1nc(CC(=O)Nc2ccc(CCNC[C@H](O)c3ccccc3)cc2)cs1")
"Condition met"
>>> answer_label("Cc1cc(O)c(-c2ccc([C@@H](C)CN(C)C)cc2)c2c1[nH]c(=O)c1sccc12")
"Condition not met"

====

Test system: U2OS
Assay: Multiplex assay against U2OS
Assay type: toxicity, cell-based
Conditions: human, 24 h, 10 µM, compound concentration 10 uM, replicate 1
Non-standard residues stand in square brackets, D forms with d. Residues, ends and D or L forms follow the SMILES beside them.
PROPERTY_MEASURED: Population Membrane Permeable-Phenotype (%)

>>> recorded_number("COCCCN1CCC(NC(=O)c2cc(Cl)c(N)c3c2OCC3)CC1 [PRUCALOPRIDE]")
5
>>> recorded_number("Cc1cc(O)c(-c2ccc([C@@H](C)CN(C)C)cc2)c2c1[nH]c(=O)c1sccc12")
16
>>> recorded_number("OCCCNc1cc(-c2ccnc(Nc3cccc(Cl)c3)n2)ccn1")
34
>>> recorded_number("CN(C)C/C=C/C(=O)Nc1ccc(C(=O)N2CCCC(Nc3ncc(Cl)c(-c4c[nH]c5ccccc45)n3)C2)cc1 (stereo not drawn)")
22
>>> recorded_number("CCCCC[C@H](O)/C=C/[C@H]1[C@H](O)CC(=O)[C@@H]1CCCCCCC(=O)O")
5
>>> recorded_number("COc1cc(OC2CCN(C(C)=O)CC2)ccc1C(=O)N1CCC(N2C(=O)OCc3ccccc32)CC1")
9
>>> recorded_number("CC(C)C[C@@H]1NC(=O)[C@@H](C(C)C)NC(=O)[C@@H]2CCCN2C(=O)[C@@H](CC(=O)O)NC(=O)[C@@H](Cc2c[nH]c3ccccc23)NC1=O [BQ-123] (cyclo(L[dW][dD]P[dV]))")
8
>>> recorded_number("Cc1nn(C)c2nc(NNC(=O)Nc3cc(Cl)nc(Cl)c3)cc(C(C)C)c12")
69
>>> recorded_number("CN1CCN2c3ccccc3Cc3ccccc3C2C1.Cl (stereo not drawn) [MIANSERIN HYDROCHLORIDE]")
9
>>> recorded_number("O=c1ccc2ccc(OCCCCN3CCN(c4cccc5sccc45)CC3)cc2[nH]1")
47
>>> recorded_number("O=c1nc2[nH]c3ccccc3nc-2c(=O)[nH]1")
8
>>> recorded_number("C=CCN1C[C@H](C(=O)N(CCCN(C)C)C(=O)NCC)C[C@@H]2c3cccc4[nH]cc(c34)C[C@H]21")
10
>>> recorded_number("COc1ccc2c(c1OCc1ccccc1)C[C@@H](C(=O)O)N(C(=O)C(c1ccccc1)c1ccccc1)C2")
4
>>> recorded_number("CC(C)(C)c1ccc(CSc2cnn(C(C)(C)C)c(=O)c2Cl)cc1")
8
>>> recorded_number("COc1cc2nc(N3CCN(C(=O)COc4c(OC)cccc4C(C)C)CC3)nc(N)c2cc1OC.Cl.Cl")
40
>>> recorded_number("COC(c1ccccc1)(c1ccccc1)[C@H](Oc1nc(C)cc(C)n1)C(=O)O")
7
>>> recorded_number("N[C@](CC1c2ccccc2Oc2ccccc21)(C(=O)O)[C@H]1C[C@@H]1C(=O)O")
3
>>> recorded_number("CSc1nc(NC2CCCC2)c([N+](=O)[O-])c(NC2CCCC2)n1")
6
>>> recorded_number("COc1cc(Nc2ncc3c(n2)-c2ccc(Cl)cc2C(c2c(F)cccc2OC)=NC3)ccc1C(=O)O")
13
>>> recorded_number("Cn1cc(C(=O)OCC2CCN(CCNS(C)(=O)=O)CC2)c2ccccc21")
11
>>> recorded_number("COc1c(Nc2ccc(S(C)(=O)=O)nc2C)ncnc1OC1CCN(C(=O)OC(C)C)CC1")
8
>>> recorded_number("Cc1cc(=O)n(C)c2cc(N3C(=O)CC[C@H](NS(=O)(=O)CC(C)C)[C@H]3c3ccc(Cl)cc3)ccc12")
25
>>> recorded_number("Cc1cc(-c2ccc3c(c2)CC[C@H]3N2CC3(CCN(C(=O)Cc4cn5cc(C)sc5n4)CC3)C2)ncn1")
3
>>> recorded_number("CN1CCC(C(=O)c2cccc(NC(=O)c3c(F)cc(F)cc3F)n2)CC1")
8
>>> recorded_number("COc1cc(C(=O)N2CC[C@@H](O)[C@@H](N)C2)cc2nc(-c3cc4ccccc4n3CC3CC3)n(C)c12.Cl")
57
>>> recorded_number("COc1cc2nc(N3CCN(C(=O)c4ccco4)CC3)nc(N)c2cc1OC.Cl [PRAZOSIN HYDROCHLORIDE]")
8
>>> recorded_number("O=C(NCCNCC(O)COc1ccc(O)cc1)N1CCOCC1.O=C(NCCNCC(O)COc1ccc(O)cc1)N1CCOCC1.O=C(O)/C=C/C(=O)O (stereo not drawn) [XAMOTEROL FUMARATE]")
6
>>> recorded_number("O=C(Nc1cc(-c2ccccc2)nn1-c1ccccc1F)c1ccc([N+](=O)[O-])cc1")
7
>>> recorded_number("COCCn1c(C)c(C)s/c1=N\\C(=O)C1C(C)(C)C1(C)C")
8
>>> recorded_number("CN1C[C@H](C(=O)N[C@]2(C)O[C@@]3(O)[C@@H]4CCCN4C(=O)[C@H](Cc4ccccc4)N3C2=O)C[C@@H]2c3cccc4[nH]cc(c34)C[C@H]21.CS(=O)(=O)O [DIHYDROERGOTAMINE MESYLATE]")
4
>>> recorded_number("Nc1nc(CC(=O)Nc2ccc(CCNC[C@H](O)c3ccccc3)cc2)cs1")
5
>>> recorded_number("O=C(O)CCC/C=C\\CC1C(O)CC(O)C1/C=C/C(O)COc1cccc(Cl)c1 (stereo not drawn)")
7
>>> recorded_number("Cc1sc2c(c1C)C(c1ccc(Cl)cc1)=N[C@H](CC(=O)OC(C)(C)C)c1nnc(C)n1-2")
17
